Data provenance: patent US20090036518A1

- EXPERIMENTAL TARGET: high affinity rolipram binding sites (HARBS) of the PDE4 (PDE4H)
- Construct: other: guinea pig whole brain particulates; 2 nM [3H]-r; guinea pig whole brain particul
- EXPERIMENTAL DETAILS: Assay II: replacement of [3H]-rolipram bound on particulate HARBS of whole brain
- Parameters: species or system guinea pig
- CONDITION CONTEXT: guinea pig whole brain particulates; 2 nM [3H]-rolipram; mean±S.E.M.; read-out: PDE4H (EC50) for replacing high-affinity [3H]-rolipram binding
- Protocol: The binding experiments are carried on basis of the methods of Schneider et al and Zhao et al with a small modification. […] The final concentration of [^3H]-rolipram is 2 nM. […] The Whatman GF/B filter is mixed with 2 ml of cocktail and counted by the β-scintillation counter (Backman, Fullerton, Calif., USA) for counting the radioactivity thereof.
OBSERVATION TYPE: EC50

(Q) Sample `COc1cc(O)c2c(=O)c(OC)c(-c3ccc(OC)c(OC)c3)oc2c1` — what was its EC50?
(A) > 300 µM

(Q) Sample O=c1cc(-c2ccc(O)c(O)c2)oc2cc(O[C@@H]3O[C@H](CO)[C@@H](O)[C@H](O)[C@H]3O)cc(O)c12 [Luteolin-7-glucoside] — what was its EC50?
(A) > 300 µM

(Q) Sample `COc1cc(O)c2c(=O)c(OC)c(-c3ccc(OC)c(O)c3)oc2c1` — what was its EC50?
(A) > 300 µM

(Q) Sample COc1ccc(C2CC(=O)c3c(O)cc(O)cc3O2)cc1O (stereo not drawn) — what was its EC50?
(A) > 300 µM

(Q) Sample COc1ccc(C2CC(=O)c3c(OC(C)=O)cc(OC(C)=O)cc3O2)cc1OC(C)=O (stereo not drawn) [Hesperetin-5,7,3′-O-triacetate (HTA), Hesperetin-5,7,3′-O-triacetate] — what was its EC50?
(A) > 300 µM

(Q) Sample `COc1ccc(-c2coc3cc(O)cc(O)c3c2=O)cc1` — what was its EC50?
(A) > 300 µM

(Q) Sample `COc1cc(O)c2c(=O)c(-c3ccc(O)cc3)coc2c1` — what was its EC50?
(A) > 300 µM

(Q) Sample `O=c1c(O)c(-c2cc(O)c(O)c(O)c2)oc2cc(O)cc(O)c12` — what was its EC50?
(A) > 300 µM

(Q) Sample `O=c1c(O)c(-c2ccc(O)c(O)c2)oc2cc(O)cc(O)c12` — what was its EC50?
(A) > 300 µM

====

- Tested on: high affinity rolipram binding sites (HARBS) of the PDE4 (PDE4H)
- EXPERIMENTAL DETAILS: Assay II: replacement of [3H]-rolipram bound on particulate HARBS of whole brain
- Parameters: species or system guinea pig
- CONDITION CONTEXT: ratio of HARBS EC50 to PDE4 IC50
Note to self: use YES only for PDE4H/PDE4L ratio (EC50/IC50) readings below 1; a reading exactly at 1 still gets NO.

(Q) Consider the compound COc1ccc(C2CC(=O)c3c(OC(C)=O)cc(OC(C)=O)cc3O2)cc1OC(C)=O (centres unmarked) [Hesperetin-5,7,3′-O-triacetate (HTA), Hesperetin-5,7,3′-O-triacetate] . Is its PDE4H/PDE4L ratio (EC50/IC50) strictly less than 1?
(A) NO

(Q) Consider the compound O=c1cc(-c2ccc(O)c(O)c2)oc2cc(O[C@@H]3O[C@H](CO)[C@@H](O)[C@H](O)[C@H]3O)cc(O)c12 [Luteolin-7-glucoside] . Is its PDE4H/PDE4L ratio (EC50/IC50) strictly less than 1?
(A) NO

(Q) Consider the compound `O=c1c(O)c(-c2ccc(O)c(O)c2)oc2cc(O)cc(O)c12` . Is its PDE4H/PDE4L ratio (EC50/IC50) strictly less than 1?
(A) NO

(Q) Consider the compound `O=c1c(O)c(-c2cc(O)c(O)c(O)c2)oc2cc(O)cc(O)c12` . Is its PDE4H/PDE4L ratio (EC50/IC50) strictly less than 1?
(A) NO

(Q) Consider the compound `COc1cc(O)c2c(=O)c(OC)c(-c3ccc(OC)c(O)c3)oc2c1` . Is its PDE4H/PDE4L ratio (EC50/IC50) strictly less than 1?
(A) NO

(Q) Consider the compound CC(=O)Oc1cc(OC(C)=O)c2c(=O)c(OC(C)=O)c(-c3ccc(OC(C)=O)c(OC(C)=O)c3)oc2c1 [Quercetin-3,5,7,3′,4′-O-pentaacetate] . Is its PDE4H/PDE4L ratio (EC50/IC50) strictly less than 1?
(A) NO

(Q) Consider the compound COc1ccc(C2CNC(=O)C2)cc1OC1CCCC1 (centres unmarked) [Rolipram, reference compound] . Is its PDE4H/PDE4L ratio (EC50/IC50) strictly less than 1?
(A) YES

(Q) Consider the compound `COc1c(-c2ccc(O)c(O)c2)oc2cc(O)cc(O)c2c1=O` . Is its PDE4H/PDE4L ratio (EC50/IC50) strictly less than 1?
(A) YES

(Q) Consider the compound COc1cc(OC)c2c(c1)OC(c1ccc(OC)c(OC)c1)CC2=O (centres unmarked) . Is its PDE4H/PDE4L ratio (EC50/IC50) strictly less than 1?
(A) NO

(Q) Consider the compound COc1cc(O)c2c(c1)OC(c1ccc(OC)c(OC)c1)CC2=O (centres unmarked) . Is its PDE4H/PDE4L ratio (EC50/IC50) strictly less than 1?
(A) NO
